What Ki was measured for each of the following?
# SUBJECT_OF_TEST: UniProtKB Q91WR5
# ASSAY_METHOD_TEXT: Inhibition of mouse recombinant AKR1C21
Answer in µM, number only, no unit symbol.

Qu. Give Ki (UniProtKB Q91WR5) of the following molecule: O=C1CC2(C(=O)N1)C(=O)N(Cc1ccc(Br)cc1F)C(=O)c1ccc(F)cc12 (stereo not drawn)
Ans. 10.4

Qu. Ki of O=c1c(O)c(-c2ccc(O)c(O)c2)oc2cc(O)cc(O)c12 [QUERCETIN] on UniProtKB Q91WR5?
Ans. 11

Qu. Provide value of Ki for this record tested with UniProtKB Q91WR5: COc1ccc2c(C(=S)N(C)CC(=O)O)cccc2c1C(F)(F)F [TOLRESTAT]
Ans. 22

====

Give measured IC50 for each item. Keep answers brief.
# SUBJECT_OF_TEST: Aldo-keto reductase family 1 member B1 (Homo sapiens, UniProt P15121)
# ASSAY_METHOD_TEXT: Inhibition of human recombinant aldose reductase
# output: bare number, implied unit µM

Qu. Tell me the measured IC50 of `O=c1cc(-c2ccccc2)oc2cc(O)cc(O)c12` , please.
Ans. 8.5

Qu. Which IC50 value is on record for `O=c1c(O)c(-c2cc(O)c(O)c(O)c2)oc2cc(O)cc(O)c12` ?
Ans. 29

====

Can you tell me IC50 for the items I'm about to list?
# SUBJECT_OF_TEST: Aldo-keto reductase family 1 member C21 (Mus musculus)
# Sequence (Q91WR5 whole entry): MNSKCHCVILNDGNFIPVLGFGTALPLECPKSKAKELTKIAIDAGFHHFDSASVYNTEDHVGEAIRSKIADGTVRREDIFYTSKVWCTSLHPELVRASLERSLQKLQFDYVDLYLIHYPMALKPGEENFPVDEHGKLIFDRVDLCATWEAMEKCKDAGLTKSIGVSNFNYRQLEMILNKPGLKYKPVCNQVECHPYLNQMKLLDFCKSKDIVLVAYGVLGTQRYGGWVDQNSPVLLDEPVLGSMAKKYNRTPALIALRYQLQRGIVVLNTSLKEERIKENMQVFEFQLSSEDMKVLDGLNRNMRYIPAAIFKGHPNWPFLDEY
# ASSAY_METHOD_TEXT: Inhibition of mouse recombinant AKR1C21

Qu. Fill in: IC50 of `O=c1c(O)c(-c2ccc(O)c(O)c2)oc2cc(O)cc(O)c12` is ___
Ans. 6.9 µM

Qu. Reported IC50, compound `O=c1c(O)c(-c2cc(O)c(O)c(O)c2)oc2cc(O)cc(O)c12` : ____
Ans. 12.3 µM

Qu. I am curious: what IC50 value has been reported for O=C1CC2(C(=O)N1)C(=O)N(Cc1ccc(Br)cc1F)C(=O)c1ccc(F)cc12 (stereo unspecified) ?
Ans. 27.5 µM

Qu. Returns the measured IC50 for the input compound. Input: `O=C(O)Cc1nn(Cc2nc3cc(C(F)(F)F)ccc3s2)c(=O)c2ccccc12`
Ans. 158 µM

Qu. # IC50 lookup, item `C[C@@H]1O[C@@H](Oc2c(-c3ccc(O)c(O)c3)oc3cc(O)cc(O)c3c2=O)[C@H](O)[C@H](O)[C@H]1O`
Ans. 33.3 µM

Qu. May I ask what IC50 has been recorded for `COc1ccc2c(C(=S)N(C)CC(=O)O)cccc2c1C(F)(F)F` ?
Ans. 48 µM
